Source of measurements: the supplement of paper PMC12042874

# Method Description: amyloid nucleation score (Sup35N fusion, yeast selection) (log enrichment); library NNK3; higher = more nucleation; inactive = no reads after selection;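 further: zero at mode of non-aggregating sequences after 7 days selection at 30°C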
Attribute Measured: amyloid nucleation score

A selection of reference data follows.
{"columns": ["Substance", "Attribute Measured", "Value Reported"],
 "data": [
  ["VMCSWLTGCYIQKNRFQGSL", "amyloid nucleation score", 0.724],
  ["LCFMRHSLRGWG", "amyloid nucleation score", -0.415],
  ["LIGFLNNSVFMSAGY", "amyloid nucleation score", "inactive"],
  ["VKSISNNSQLSSELN", "amyloid nucleation score", "inactive"],
  ["EVYFKMAQPLLHWDYERMQV", "amyloid nucleation score", "inactive"]
]}

Consider the substance IYYFSLSMVLRCSEWTLYVY . State its measured amyloid nucleation score.
inactive

Consider the substance YSMQGYRCMYLGDNVAVLAF . State its measured amyloid nucleation score.
inactive

Consider the substance VDSSRIKCSNVN . State its measured amyloid nucleation score.
inactive

Consider the substance DVLLARCYNCLSAFRLNSLC . State its measured amyloid nucleation score.
inactive

Consider the substance RLVMHSRHTMLLHARGLRSR . State its measured amyloid nucleation score.
inactive

Consider the substance EGARSGKENGSGKPYRPLGV . State its measured amyloid nucleation score.
0.528

Consider the substance YLFHLLSDRRCEDMCVVGIK . State its measured amyloid nucleation score.
inactive

Consider the substance QDPLVT . State its measured amyloid nucleation score.
inactive

Consider the substance PVLSRITFSNSSDRI . State its measured amyloid nucleation score.
inactive

Consider the substance KRLFIILIWKFCTGLCFL . State its measured amyloid nucleation score.
inactive

Consider the substance ASYRAVNVDTGRIWPEFQLG . State its measured amyloid nucleation score.
inactive

Consider the substance EALLSSLIIFIDQRGVCEFV . State its measured amyloid nucleation score.
inactive
